experiment: chemical genetic growth profiling, strain panel (AID 1159580);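 also: tested at 20 µM; growth read once vehicle control cultures reached saturation at 30 °C; 1 = growth at the plate median or of vehicle wells; lower values mean less growth of the strain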; details: S. cerevisiae deletion strains, growth OD, locus YDR069C, strain doa4, stronger effect = lower value
About 2,000 (36%) of roughly 5,500 compounds were called active. Not shown: some 18% with an inconclusive outcome. The list shows a part of the results.

molecule	normalized growth
CC[C@@]1(O)C[C@H](O)c2c(cc3c(c2O)C(=O)c2c(O)ccc(O)c2C3=O)[C@H]1C(=O)OC	0.896
O=C(O)CCCc1ccccc1	1
COc1ccc(C(c2ccc(OC)cc2)C(Cl)(Cl)Cl)cc1	0.992
COC(=O)[C@@H]1OC(=O)C2OC23[C@@]1(C)CCC1[C@]2(C)C(C[C@H](O)[C@]13C)C(C)(C)[C@H](OC(C)=O)C[C@@H]2OC(C)=O (some centres undefined)	1.03
CCCc1cc(C(N)=S)ccn1	0.95
O=S(=O)(O)CCS	0.992
O=C(c1ccc(OCCN2CCCCC2)cc1)c1c(-c2ccc(O)cc2)sc2cc(O)ccc12	1.01
COC(=O)c1cc(=O)c(O)c2c(O)c(O)ccc2c1	0.955
C#CCN(C)Cc1ccccc1	0.955
O=c1cccc2ccc(O)c(O)c2c1O	0.625
c1ccc2c(c1)sc1ccccc12	1.02
Cc1ccc(S(=O)(=O)NC(=O)NN2CCCCCC2)cc1	1
N[C@@H](Cc1ccc(N(CCCl)CCCl)cc1)C(=O)O	0.996
CC1(O)CC2C(CC1O)C2(C)C (centres undefined)	1.02
COc1ccc(OC)c(C(O)CNC(=O)CN)c1 (centres undefined)	1
C=C1C2CC[C@@]3(C)[C@H](c4ccoc4)OC(=O)C[C@]13O[C@H]1CC(=O)C(C)(C)[C@H](C(OC(C)=O)C(=O)OC)[C@@]21C (some centres undefined)	1.03
O=C(O)/C=C/c1ccc(O)c(O)c1	1.01
Cc1ncc(CNC(=O)N(CCCl)N=O)c(N)n1	1.02
Clc1ccc(C(c2ccc(Cl)cc2)C(Cl)(Cl)Cl)cc1	0.992
CCCCNC(=O)NS(=O)(=O)c1ccc(C)cc1	1.02
OCCc1ccccc1	0.981
COc1cc2nc(N(C)CCCNC(=O)C3CCCO3)nc(N)c2cc1OC (centres undefined)	0.991
NCCCS(=O)(=O)O	1.01
CC[C@@]1(O)C[C@H](O[C@H]2C[C@H](N(C)C)[C@H](O)[C@H](C)O2)c2c(cc3c(c2O)C(=O)c2c(O)cccc2C3=O)[C@H]1C(=O)OC	0.908

* * *

experiment: chemical genetic growth profiling, strain panel (AID 1159580);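 also: tested at 20 µM; growth read once vehicle control cultures reached saturation at 30 °C; 1 = growth at the plate median or of vehicle wells; lower values mean less growth of the strain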; details: S. cerevisiae deletion strains, growth OD, locus YOR290C, strain snf2, stronger effect = lower value
Screen size: about 5,500 compounds; about 2,000 (36%) were called active. Not shown: some 18% with an inconclusive outcome. This is one part of the list.

compound	normalized growth
c1ccc2c(c1)sc1ccccc12	0.891
COc1ccc2c(c1)OC/C(=C\c1ccc(OC)c(O)c1)C2=O	0.789
CCCCNC(=O)NS(=O)(=O)c1ccc(C)cc1	0.998
COc1ccc(OC)c(C(O)CNC(=O)CN)c1 (stereo not drawn)	0.997
CN(C)CCN(Cc1ccccc1)c1ccccn1	0.985
O=C(Oc1cc(OC(=O)c2ccccc2)c2c(c1)O[C@H](c1ccc(OC(=O)c3ccccc3)c(OC(=O)c3ccccc3)c1)[C@@H](OC(=O)c1ccccc1)C2)c1ccccc1	0.954
Cc1ccc(C(=O)Nc2ccc(S(=O)(=O)O)c3cc(S(=O)(=O)O)cc(S(=O)(=O)O)c23)cc1NC(=O)c1cccc(NC(=O)Nc2cccc(C(=O)Nc3cc(C(=O)Nc4ccc(S(=O)(=O)O)c5cc(S(=O)(=O)O)cc(S(=O)(=O)O)c45)ccc3C)c2)c1	1.06
CC(=O)Oc1cc(OC(C)=O)c2c(c1)O[C@H](c1ccc(OC(C)=O)c(OC(C)=O)c1)[C@@H](OC(C)=O)C2	0.961
CC[C@@H](C(=O)C(C)[C@@H](O)[C@H](C)CCc1ccc(C)c(O)c1C(=O)O)C1OC(CC)(C2CC[C@](O)(CC)[C@H](C)O2)C[C@@H]1C (stereo partly drawn)	1.06
Cc1ccc(S(=O)(=O)NC(=O)NN2CCCCCC2)cc1	0.957
COC(=O)/C=C/C(C)=C/C=C/C(C)=C/C=C/C=C(C)/C=C/C=C(C)/C=C/C(=O)O	1.02
COc1ccc(C(=O)CC(=O)O)c2c1C=CC(C)(C)O2	0.997
O=C(O)CCCc1ccccc1	0.962
N[C@@H](Cc1ccc(N(CCCl)CCCl)cc1)C(=O)O	0.909
CCC[C@H](N[C@@H](C)C(=O)N1[C@H](C(=O)O)C[C@@H]2CCCC[C@@H]21)C(=O)OCC	1
O=C(O)CCCc1ccc(N(CCCl)CCCl)cc1	0.935
OCCc1ccccc1	0.986
CN1CC(=O)N=C1N	1.02

* * *

test: chemical genetic growth profiling, strain panel (AID 1159580);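 also: tested at 20 µM; growth read once vehicle control cultures reached saturation at 30 °C; 1 = growth at the plate median or of vehicle wells; lower values mean less growth of the strain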; details: S. cerevisiae deletion strains, growth OD, locus YNL322C, strain KRE1 (second series), stronger effect = lower value
Out of some 5,500 compounds screened, about 2,000 (36%) were called active. Not shown: some 18% with an inconclusive outcome. Some of the results follow.
Each record here notes measured normalized growth.
reported.metric: normalized growth

>>> df
                                   molecule    reported_metric  value_reported
0  C=C[C@@](C)(O)CCC1C(=C)C[C@H](OC(C)=O)C2C(C)(C)CCCC12C (stereo not given in full)  normalized growth           0.984
1  C[C@@H]1CC(Cl)CC[C@H]1C(=O)OC(C)(C)C (stereo not given in full)  normalized growth           0.996
2  COc1ccc(C2CNC(=O)C2)cc1OC1CCCC1 (stereo not given)  normalized growth           0.996
3  C=C[C@@](C)(O)CCC1C(=C)CCC2[C@@](C)(CO)CCC[C@]12C (stereo not given in full)  normalized growth           0.933
4  C=C1CCC2[C@](C)(CO)[C@H](O)CC[C@@]2(C)[C@@H]1C/C=C1/C(=O)OC[C@H]1O (stereo not given in full)  normalized growth           0.977

* * *

assay: chemical genetic growth profiling, strain panel (AID 1159580);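 also: tested at 20 µM; growth read once vehicle control cultures reached saturation at 30 °C; 1 = growth at the plate median or of vehicle wells; lower values mean less growth of the strain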; conditions: S. cerevisiae deletion strains, growth OD, locus YLR262C, strain YPT6, stronger effect = lower value
About 2,000 (36%) of roughly 5,500 compounds were called active. Inconclusive results (about 18%) are left out. The list shows a part of the results.
// values below are reported normalized growth

compound	normalized growth
C[C@]12CCC(=O)C=C1C=CC1C2CC[C@@]2(C)C1CC[C@@]21CCC(=O)O1 (some centres undefined)	0.525 (active)
O=C(CCc1nc(-c2ccc(Cl)cc2)no1)NNS(=O)(=O)c1cc(Cl)c(Cl)cc1Cl	1.03 (inactive)
COc1ccc(C(=O)O)cc1OC	1.2 (inactive)
COc1ccc(-c2coc3cc(O)ccc3c2=O)c(OC)c1	0.989 (inactive)
O=[N+]([O-])c1ccc(S(=O)(=O)N2CCCCC2)cc1	1.03 (inactive)
Cc1nn(C)c(C)c1[N+](=O)[O-]	0.993 (inactive)
Clc1ccc(C(c2ccc(Cl)cc2)C(Cl)(Cl)Cl)cc1	0.999 (inactive)
N#CCCN(CC1CCCO1)C(=S)Nc1cc(C(F)(F)F)cc(C(F)(F)F)c1 (centres undefined)	0.908 (inactive)
O=C1c2ccccc2C(=O)C1(c1ccccc1)[N+](=O)[O-]	0.8 (active)
C=CCc1ccc(O)c(OC)c1	0.674 (inactive)
C[C@@H]1O[C@@H](O[C@H]2[C@H](Oc3cc(O)c4c(=O)cc(-c5ccc(O)cc5)oc4c3)O[C@H](CO)[C@@H](O)[C@@H]2O)[C@H](O)[C@H](O)[C@H]1O	0.95 (inactive)
C#CCN(C)Cc1ccccc1	0.997 (inactive)
Cc1ccc(C)n1-c1ccc(C(=O)NNS(=O)(=O)c2ccc(Cl)cc2)cc1	0.98 (inactive)
O=[N+]([O-])c1ccc(OCCO)c([N+](=O)[O-])c1	1.14 (inactive)
COC(=O)C[C@H]1C2(C)CC34OC5(C)O[C@@]6([C@H](OC)C(OC(=O)C(C)C)[C@]7(C)C(/C(=C(/OC)C(C)C)C(=O)O[C@H]7c7ccoc7)[C@@]6(O5)[C@H](OC)[C@@]3(OC)C2OC(C)=O)[C@]14C (some centres undefined)	0.754 (inactive)
C[C@]12CCC(=O)C=C1C=CC1C2CC[C@@]2(C)C1CC[C@@]2(O)CCC(=O)O (some centres undefined)	0.983 (inactive)
CCC(C)C(=O)O[C@@H]1C[C@@]2(C)[C@H](c3ccoc3)OC(=O)CC23OC2(C)O[C@]14[C@]1(C)[C@@H](CC(=O)OC)C5(C)CC1(O)[C@](O)(C5OC(=O)C1(C)OC1C)[C@@H](OC(C)=O)[C@]34O2 (some centres undefined)	0.602 (active)
O=c1c(-c2ccc(O)cc2)coc2cc(O)ccc12	1.09 (inactive)
CCCCCCCCC(=O)NCc1ccc(O)c(OC)c1	1.01 (inactive)
